Data origin: patent US9637490B2

- assay protocol: in vivo
- Design: species or system mice
- applied conditions: mouse, po, 10 mg/kg
assay readout: bioavailability (%)

>>> df
                                   compound  assay_result
0  CN(C/C=C/C#CC(C)(C)C)Cc1cccc2ccccc12 [Terbinafine, reference compound]            19

P: CC(F)(F)c1ccc(C2=NCc3c(Cl)cccc3-n3cccc32)cc1
Q: CCc1ccc(C2=NCc3c(Cl)cccc3-n3cccc32)cc1 [Compound 22 of WO02/34752, reference compound]
Compare P and Q by numeric bioavailability and name the larger one. Output the label that corresponds to your choice.
P

---

- assay protocol: Solubility in buffer systems A-G
- Format: physicochemical
- applied conditions: phosphate-citrate (McIlvaine) buffer pH 7.4, pH 7.4, aqueous buffer, thermodynamic from solid, buffer pH 7.4; ambient temperature; read-out: Solubility, buffer system E
assay readout: solubility

Fill in: solubility of CC(F)(F)c1ccc(C2=NCc3ccc(Cl)cc3-n3cccc32)cc1 [drawing 30] is ___
< 1 µg/mL
